- PROTOCOL_SUMMARY: biodistribution in A431-CCK2R/A431-mock xenografted BALB/c nude mice
- Format: in vivo
- PROTOCOL_CONDITIONS: female, athymic BALB/c nude, mouse, liver, iv, 150 pmol, total radioactivity, 150 pmol, 4 h p.i.; read-out: uptake in liver
Non-standard residues stand in square brackets, D forms with d. Residues, ends and D or L forms follow the SMILES beside them. *: point of attachment. DOTA = O=C(O)CN1CCN(CC(=O)O)CCN(CC(=O)*)CCN(CC(=O)O)CC1; 1Nal = N[C@@H](Cc1cccc2ccccc12)C(=O)O; NMeNle = CCCC[C@H](NC)C(=O)O
ATTRIBUTE_MEASURED: tissue uptake at 4 h (%ID/g)
Dear colleague, please return just the value in %ID/g, with no unit written.

MOLECULE	UNIT_NAME	tissue uptake at 4 h
CCCC[C@@H](C(=O)N[C@@H](CC(=O)O)C(=O)N[C@@H](Cc1cccc2ccccc12)C(N)=O)N(C)C(=O)[C@H](Cc1c[nH]c2ccccc12)NC(=O)CNC(=O)[C@H](Cc1ccc(O)cc1)NC(=O)[C@@H]1CCCN1C(=O)[C@@H](CCC(=O)O)NC(=O)CN1CCN(CC(=O)O)CCN(CC(=O)O)CCN(CC(=O)O)CC1 [[^177Lu]Lu-1, metal not drawn] ({DOTA}-[dE]PYGW[NMeNle]D[1Nal]-NH2)	%ID/g	0.49

Now take the following molecule into account.
[ask] Requested field: tissue uptake at 4 h. Item: CCCC[C@@H](C(=O)N[C@@H](CC(=O)O)C(=O)N[C@@H](Cc1cccc2ccccc12)C(N)=O)N(C)C(=O)[C@H](Cc1c[nH]c2ccccc12)NC(=O)CNC(=O)[C@@H]1CCCN1C(=O)[C@H](Cc1ccc(O)cc1)NC(=O)[C@@H](CCC(=O)O)NC(=O)CN1CCN(CC(=O)O)CCN(CC(=O)O)CCN(CC(=O)O)CC1 [[^177Lu]Lu-2, metal not drawn] ({DOTA}-[dE]YPGW[NMeNle]D[1Nal]-NH2)
[reply] 0.79

---

- PROTOCOL_SUMMARY: biodistribution in A431-CCK2R/A431-mock xenografted BALB/c nude mice
- Format: in vivo
- PROTOCOL_CONDITIONS: female, athymic BALB/c nude, mouse, heart, iv, 20 pmol, total radioactivity, 20 pmol, 4 h p.i.; read-out: uptake in heart
Non-standard residues stand in square brackets, D forms with d. Residues, ends and D or L forms follow the SMILES beside them. *: point of attachment. DOTA = O=C(O)CN1CCN(CC(=O)O)CCN(CC(=O)*)CCN(CC(=O)O)CC1; 1Nal = N[C@@H](Cc1cccc2ccccc12)C(=O)O; NMeNle = CCCC[C@H](NC)C(=O)O
tissue uptake at 4 h for assorted molecules
Dear colleague, please return just the value in %ID/g, with no unit written.

Below: 2 molecules and their reported tissue uptake at 4 h.
MOLECULE	tissue uptake at 4 h, %ID/g
CCCC[C@@H](C(=O)N[C@@H](CC(=O)O)C(=O)N[C@@H](Cc1cccc2ccccc12)C(N)=O)N(C)C(=O)[C@H](Cc1c[nH]c2ccccc12)NC(=O)[C@@H]1CCCN1C(=O)[C@H](Cc1ccc(O)cc1)NC(=O)[C@H](C)NC(=O)[C@@H](CCC(=O)O)NC(=O)CN1CCN(CC(=O)O)CCN(CC(=O)O)CCN(CC(=O)O)CC1 [[^177Lu]Lu-3, metal not drawn] ({DOTA}-[dE]AYPW[NMeNle]D[1Nal]-NH2)	0.08
CCCC[C@@H](C(=O)N[C@@H](CC(=O)O)C(=O)N[C@@H](Cc1cccc2ccccc12)C(N)=O)N(C)C(=O)[C@H](Cc1c[nH]c2ccccc12)NC(=O)CNC(=O)[C@@H]1CCCN1C(=O)[C@H](Cc1ccc(O)cc1)NC(=O)[C@@H](CCC(=O)O)NC(=O)CN1CCN(CC(=O)O)CCN(CC(=O)O)CCN(CC(=O)O)CC1 [[^177Lu]Lu-2, metal not drawn] ({DOTA}-[dE]YPGW[NMeNle]D[1Nal]-NH2)	0.09

[ask] Requested field: tissue uptake at 4 h. Item: CCCC[C@@H](C(=O)N[C@@H](CC(=O)O)C(=O)N[C@@H](Cc1cccc2ccccc12)C(N)=O)N(C)C(=O)[C@H](Cc1c[nH]c2ccccc12)NC(=O)CNC(=O)[C@H](Cc1ccc(O)cc1)NC(=O)[C@@H]1CCCN1C(=O)[C@@H](CCC(=O)O)NC(=O)CN1CCN(CC(=O)O)CCN(CC(=O)O)CCN(CC(=O)O)CC1 [[^177Lu]Lu-1, metal not drawn] ({DOTA}-[dE]PYGW[NMeNle]D[1Nal]-NH2)
[reply] 0.09
